molecular target: Beta Secretase enzyme (BACE) (Homo sapiens, UniProt P56817); test: In vitro enzymatic BACE FRET (fluorescence resonance energy transfer) assay; assay type: biochemical; conditions: read-out: BACE1 FRET assay (IC50)
Sequence (P56817 46-501): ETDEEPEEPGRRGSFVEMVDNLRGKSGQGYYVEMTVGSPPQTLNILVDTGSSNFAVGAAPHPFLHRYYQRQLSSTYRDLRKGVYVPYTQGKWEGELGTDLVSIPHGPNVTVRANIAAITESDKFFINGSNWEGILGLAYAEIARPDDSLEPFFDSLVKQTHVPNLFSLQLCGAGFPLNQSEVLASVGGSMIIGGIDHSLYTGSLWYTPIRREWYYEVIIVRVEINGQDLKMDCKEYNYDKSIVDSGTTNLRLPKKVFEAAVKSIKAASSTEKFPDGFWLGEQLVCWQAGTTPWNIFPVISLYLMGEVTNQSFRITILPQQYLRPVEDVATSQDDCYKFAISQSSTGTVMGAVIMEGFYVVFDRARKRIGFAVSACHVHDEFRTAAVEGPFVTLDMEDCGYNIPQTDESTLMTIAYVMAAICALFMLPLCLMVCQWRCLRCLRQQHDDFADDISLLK
pIC50: −log10 of the molar value.
# binarize pIC50: threshold 7 inclusive, high side fulfilled, low side not fulfilled

compound="CC(C)Cc1cnc2c(c1)[C@@H](NC[C@@H](O)[C@H](Cc1ccc3c(c1)OCO3)NC(=O)[C@H](C)F)CC1(CCC1)O2 [compound 601]" target_entity="Beta Secretase enzyme (BACE) (Homo sapiens, UniProt P56817)" classification=fulfilled
compound="COCC(=O)N[C@@H](Cc1cccc(F)c1)[C@H](O)CN[C@H]1CC2(CCC2)Oc2c1cc(CC(C)(C)OC)cc2-n1ccnc1.O=C(O)C(F)(F)F [Example 423]" target_entity="Beta Secretase enzyme (BACE) (Homo sapiens, UniProt P56817)" classification="not fulfilled"
compound="COCC(=O)N[C@@H](Cc1cc(F)cc(F)c1)[C@H](O)CN[C@H]1CC2(CCC2)Oc2c1cc(CC(C)(C)C)nc2-c1cncn1C [Example 597]" target_entity="Beta Secretase enzyme (BACE) (Homo sapiens, UniProt P56817)" classification=fulfilled
compound="CC(C)(C)Cc1cnc2c(c1)[C@@H](NC[C@@H](O)[C@H](Cc1ccc(F)cc1)NC(=O)COC(F)F)CC1(CCC1)O2 [compound 647]" target_entity="Beta Secretase enzyme (BACE) (Homo sapiens, UniProt P56817)" classification=fulfilled
compound="CC(=O)N[C@@H](Cc1cc(F)cc(-c2ccncc2)c1)[C@H](O)CN[C@H]1CC2(CCC2)Oc2ncc(CC(C)(C)C)cc21 [compound 614]" target_entity="Beta Secretase enzyme (BACE) (Homo sapiens, UniProt P56817)" classification=fulfilled
compound="COCC(=O)N[C@@H](Cc1cccc(F)c1)[C@H](O)CN[C@H]1CC2(CCC2)Oc2c1cc([C@@H](O)C(C)(C)C)cc2-n1ccnc1 [compound 593]" target_entity="Beta Secretase enzyme (BACE) (Homo sapiens, UniProt P56817)" classification="not fulfilled"

* * *

Listed next: entries and their corresponding pIC50.
biological target: CYP3A4 (CYP3A) (Homo sapiens, UniProt P08684); assay: in vitro; settings: microsomes, pH 7.4;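 also: inhibition of CYP3A-mediated 1-hydroxymidazolam formation after 10 min incubation with NADPH, quantified by HPLC MS relative to metabolite produced without test compound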
Sequence (P08684 2-503): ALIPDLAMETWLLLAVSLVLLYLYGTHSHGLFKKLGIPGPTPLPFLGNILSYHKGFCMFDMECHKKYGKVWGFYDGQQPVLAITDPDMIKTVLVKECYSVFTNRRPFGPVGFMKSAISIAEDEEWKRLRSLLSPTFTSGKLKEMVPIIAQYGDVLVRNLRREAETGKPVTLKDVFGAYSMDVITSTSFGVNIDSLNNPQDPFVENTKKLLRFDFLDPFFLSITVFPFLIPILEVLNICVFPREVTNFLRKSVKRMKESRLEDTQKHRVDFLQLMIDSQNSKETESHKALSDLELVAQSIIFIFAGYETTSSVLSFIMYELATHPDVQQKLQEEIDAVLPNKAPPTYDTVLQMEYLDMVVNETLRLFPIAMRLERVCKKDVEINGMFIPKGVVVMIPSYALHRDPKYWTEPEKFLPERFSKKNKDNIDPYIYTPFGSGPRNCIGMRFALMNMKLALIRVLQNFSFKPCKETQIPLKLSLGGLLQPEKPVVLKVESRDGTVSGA
pIC50: −log10 of the molar value.
Readout Name: pIC50

smiles_input=COCC(=O)N[C@@H](Cc1ccnc(OC)c1)[C@H](O)CN[C@H]1CC2(CCC2)Oc2ncc(CC(C)(C)C)cc21 readout_name=pIC50 test_result=5.70
smiles_input=CC(=O)N[C@@H](Cc1cc(F)cc(F)c1)[C@H](O)CN[C@H]1CC2(CCC2)Oc2ncc(C(F)(F)C(C)(C)C)cc21 readout_name=pIC50 test_result=5.68
smiles_input=COCC(=O)N[C@@H](Cc1ccc2c(c1)OCO2)[C@H](O)CN[C@H]1CC2(CCC2)Oc2c1cc(CC(C)C)nc2Cl readout_name=pIC50 test_result=7.00
smiles_input=CC(=O)N[C@@H](Cc1cc(F)cc(F)c1)[C@H](O)CN[C@H]1CC2(CCC2)Oc2c1cc(CC(C)(C)C)nc2-c1ccncc1 readout_name=pIC50 test_result=7.00
smiles_input=CO[C@H](C)C(=O)N[C@@H](Cc1cc(F)cc(F)c1)[C@H](O)CN[C@H]1CC2(CCC2)Oc2c1cc(CC(C)C)nc2Cl readout_name=pIC50 test_result=6.70
smiles_input=Cc1cccc(CN2CCO[C@@H](C(=O)N[C@@H](Cc3ccc(F)cc3)[C@H](O)CN[C@H]3CC4(CCC4)Oc4ncc(CC(C)(C)C)cc43)C2)c1 readout_name=pIC50 test_result=6.70

* * *

Listed next: entries and their corresponding IC50.
target: Beta Secretase enzyme (BACE) (Homo sapiens); assay: In vitro enzymatic BACE FRET (fluorescence resonance energy transfer) assay; assay type: biochemical; conditions: BACE enzyme assay, IC50's in uM; read-out: BACE1 FRET assay
Readout Name: IC50 (µM)

smiles_input=C#Cc1cc(F)cc(C[C@H](NC(=O)[C@@H](C)OC)[C@H](O)CN[C@H]2CC3(CCC3)Oc3ncc(CC(C)(C)C)cc32)c1 readout_name=IC50 reading_unit=µM test_result=0.005
smiles_input=COC(OC)C(=O)N[C@@H](Cc1cccc(F)c1)[C@H](O)CN[C@H]1CC2(CCC2)Oc2ncc(CC(C)(F)F)cc21 readout_name=IC50 reading_unit=µM test_result=0.008
smiles_input=CC(C)C(=O)N[C@@H](Cc1ccc2c(c1)OCO2)[C@H](O)CN[C@H]1CC2(CCC2)Oc2ncc(CC(C)(C)C)cc21 readout_name=IC50 reading_unit=µM test_result=0.144
smiles_input=C#Cc1cccc(C[C@H](NC(=O)[C@@H](C)OC)[C@H](O)CN[C@H]2CC3(CCC3)Oc3ncc(CC(C)(C)C)cc32)c1F readout_name=IC50 reading_unit=µM test_result=0.013
smiles_input=CO[C@H](C)C(=O)N[C@@H](Cc1ccc(F)c(-c2nccs2)c1)[C@H](O)CN[C@H]1CC2(CCC2)Oc2ncc(CC(C)(C)F)cc21 readout_name=IC50 reading_unit=µM test_result=0.031
smiles_input=CNc1nc(CC(C)(C)C)cc2c1OC1(CCC1)C[C@@H]2NC[C@@H](O)[C@H](Cc1cc(F)cc(-c2nccs2)c1)NC(=O)COC readout_name=IC50 reading_unit=µM test_result=0.044

* * *

molecular target: CYP2D6 (Homo sapiens); experiment: CYP2D6 inhibition assay (bufuralol, pooled human liver microsomes); details: 2D6 IC50, CYP enzyme inhibition
Sequence (P10635 whole entry): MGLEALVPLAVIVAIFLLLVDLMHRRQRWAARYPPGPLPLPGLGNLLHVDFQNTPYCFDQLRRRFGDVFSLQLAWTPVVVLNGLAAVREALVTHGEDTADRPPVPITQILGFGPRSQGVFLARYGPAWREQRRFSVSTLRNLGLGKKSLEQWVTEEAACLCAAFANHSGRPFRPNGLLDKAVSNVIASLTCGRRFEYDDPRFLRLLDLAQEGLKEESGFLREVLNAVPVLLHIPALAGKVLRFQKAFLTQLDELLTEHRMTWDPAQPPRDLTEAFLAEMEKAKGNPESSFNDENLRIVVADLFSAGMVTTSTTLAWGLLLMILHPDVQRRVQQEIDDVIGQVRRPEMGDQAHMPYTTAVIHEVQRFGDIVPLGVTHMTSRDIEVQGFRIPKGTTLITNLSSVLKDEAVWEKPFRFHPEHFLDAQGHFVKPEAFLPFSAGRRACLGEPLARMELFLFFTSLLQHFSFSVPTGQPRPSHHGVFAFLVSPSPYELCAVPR
Friendly reminder: IC50 below 700 nM is YES, at or above is NO.

molecule="CC1(C)C[C@H]1c1cnc2c(c1)[C@@H](NC[C@@H](O)[C@H](Cc1cccc(-c3nccs3)c1)NC(=O)[C@H]1CCCO1)CC1(CCC1)O2 [compound 906]" target_entity="CYP2D6 (Homo sapiens)" classification=YES
molecule="CC(=O)C(C)(C)C(=O)N[C@@H](Cc1ccc2c(c1)OCO2)[C@H](O)CN[C@H]1CC2(CCC2)Oc2ncc(CC(C)(C)C)cc21 [compound 457]" target_entity="CYP2D6 (Homo sapiens)" classification=NO
molecule="COCC(=O)N[C@@H](Cc1cc(F)cc(F)c1)[C@H](O)CN[C@H]1CC2(CCC2)Oc2c(-c3cnc[nH]3)cc(CC(C)C)cc21 [compound 480]" target_entity="CYP2D6 (Homo sapiens)" classification=NO
molecule="C#Cc1cc(C#C)cc(C[C@H](NC(=O)COC)[C@H](O)CN[C@H]2CC3(CCC3)Oc3ncc(CC(C)(C)C)cc32)c1 [compound 858]" target_entity="CYP2D6 (Homo sapiens)" classification=NO

* * *

molecular target: Beta Secretase enzyme (BACE) (Homo sapiens); experiment: In vitro enzymatic BACE FRET (fluorescence resonance energy transfer) assay; format: biochemical; details: Table 2; read-out: BACE1 FRET assay
Friendly reminder: IC50 below 0.1 µM is fulfilled, at or above is not fulfilled.

compound="CC(=O)C(C)(C)C(=O)N[C@@H](Cc1ccc2c(c1)OCO2)[C@H](O)CN[C@H]1CC2(CCC2)Oc2ncc(CC(C)(C)C)cc21 [compound 457]" target_entity="Beta Secretase enzyme (BACE) (Homo sapiens)" classification="not fulfilled"
compound="COCC(=O)N[C@@H](Cc1cc(F)cc(F)c1)[C@H](O)CN[C@H]1CC2(CCC2)Oc2c1cc(CC(C)C)cc2-n1ccnc1 [compound 458]" target_entity="Beta Secretase enzyme (BACE) (Homo sapiens)" classification=fulfilled
compound="COCC(=O)N[C@@H](Cc1ccc(F)cc1)[C@H](O)CN[C@H]1CC2(CCC2)Oc2c1cc(CC(C)(C)C)nc2-n1ccnc1 [compound 448]" target_entity="Beta Secretase enzyme (BACE) (Homo sapiens)" classification="not fulfilled"
compound="CC(C)(C)Cc1cnc2c(c1)[C@@H](NC[C@@H](O)[C@H](Cc1ccc3c(c1)OCO3)NC(=O)[C@@H]1CCCO1)CC1(CCC1)O2 [compound 453]" target_entity="Beta Secretase enzyme (BACE) (Homo sapiens)" classification=fulfilled
compound="COCC(=O)N[C@@H](Cc1cc(F)cc(F)c1)[C@H](O)CN[C@H]1CC2(CCC2)Oc2c(-c3cncs3)cc(CC(C)(C)C)cc21 [compound 486]" target_entity="Beta Secretase enzyme (BACE) (Homo sapiens)" classification=fulfilled
compound="CC(=O)CC(=O)N[C@@H](Cc1cccc(F)c1)[C@H](O)CN[C@H]1CC2(CCC2)Oc2ncc(CC(C)(C)C)cc21 [compound 466]" target_entity="Beta Secretase enzyme (BACE) (Homo sapiens)" classification=fulfilled

* * *

biological target: Beta Secretase enzyme (BACE) (Homo sapiens, UniProt P56817); assay: In vitro enzymatic BACE FRET (fluorescence resonance energy transfer) assay; assay type: biochemical; conditions: BACE enzyme assay; read-out: BACE1 FRET assay (IC50);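 also: fluorescence read after 1 h with 50 nM quenched peptide substrate spanning the BACE cleavage site, in pH 4.2 acetate buffer containing 10% DMSO and nonionic detergent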
Readout Name: IC50 (nM)

molecule=CC(=O)N[C@@H](Cc1ccc2c(c1)OCO2)[C@H](O)CN[C@H]1CC2(CCC2)Oc2c(F)cc(CC(C)(C)C)cc21 readout_name=IC50 test_result=12.5
molecule=COCC(=O)N[C@@H](Cc1cccc(F)c1)[C@H](O)CN[C@H]1CC2(CCC2)Oc2c1cc(CC(C)(C)C)nc2OCC(F)(F)F readout_name=IC50 test_result=7.75
molecule=COCC(=O)N[C@@H](Cc1ccc(F)cc1)[C@H](O)CN[C@H]1CC2(CCC2)Oc2ncc([C@H](F)C(C)(C)C)cc21 readout_name=IC50 test_result=5.49
molecule=CC(C)(C)Cc1cnc2c(c1)[C@@H](NC[C@@H](O)[C@H](Cc1cccc(F)c1)NC(=O)C(C)(Cl)Cl)CC1(CCC1)O2 readout_name=IC50 test_result=66.9
molecule=CO[C@H](C)C(=O)N[C@@H](Cc1cccc(C#N)c1)[C@H](O)CN[C@H]1CC2(CCC2)Oc2ncc(CC(C)(C)F)cc21 readout_name=IC50 test_result=5.75
molecule="COC(C(=O)N[C@@H](Cc1ccc(F)cc1)[C@H](O)CN[C@H]1CC2(CCC2)Oc2ncc(CC(C)(C)C)cc21)C(F)(F)F (stereo partly shown)" readout_name=IC50 test_result=364
molecule=COCC(=O)N[C@@H](Cc1cccc(C#N)c1)[C@H](O)CN[C@H]1CC2(CCC2)Oc2ncc(CC(C)(C)F)cc21 readout_name=IC50 test_result=2.94
molecule=COc1cc(C[C@H](NC(=O)C(F)(F)F)[C@H](O)CN[C@H]2CC3(CCC3)Oc3ncc(CC(C)(C)C)cc32)ccc1F readout_name=IC50 test_result=12.3
molecule=CC(C)(C)Cc1cnc2c(c1)[C@@H](NC[C@@H](O)[C@H](Cc1ccc(F)cc1)NC(=O)[C@@H](O)C(F)(F)F)CC1(CCC1)O2 readout_name=IC50 test_result=33.6
molecule=CO[C@H](C(=O)N[C@@H](Cc1ccc(F)cc1)[C@H](O)CN[C@H]1CC2(CCC2)Oc2ncc(CC(C)(C)C)cc21)C(F)(F)F readout_name=IC50 test_result=617
molecule=CNc1nc(CC(C)(C)C)cc2c1OC1(CCC1)C[C@@H]2NC[C@@H](O)[C@H](Cc1ccc(F)cc1)NC(=O)[C@@H](C)OC readout_name=IC50 test_result=82
molecule=CC(=O)N[C@@H](Cc1ccc(F)cc1)[C@H](O)CN[C@H]1C[C@]2(CC[C@H]2O)Oc2ncc(CC(C)(C)C)cc21 readout_name=IC50 test_result=9.11
molecule=COCC(=O)N[C@@H](Cc1ccc2c(c1)OCO2)[C@H](O)CN[C@H]1CC2(CCC2)Oc2ncc(CC(C)(C)CF)cc21 readout_name=IC50 test_result=15.5
molecule=CC(C)(C)Cc1cnc2c(c1)[C@@H](NC[C@@H](O)[C@H](Cc1cccc(C#N)c1)NC(=O)[C@@H](O)C(F)(F)F)CC1(CCC1)O2 readout_name=IC50 test_result=4.01
molecule="COCC(=O)N[C@@H](Cc1ccc(F)cc1)[C@H](O)CNC1CC2(CC(F)(F)C2)Oc2ncc(CC(C)(C)C)cc21 (stereo partly shown)" readout_name=IC50 test_result=11
molecule="CC(C)(C)Cc1cnc2c(c1)[C@@H](NC[C@@H](O)[C@H](Cc1ccc(F)cc1)NC(=O)C(F)C(F)(F)F)CC1(CCC1)O2 (stereo partly shown)" readout_name=IC50 test_result=50.4
molecule=CC(C)(C)Cc1cnc2c(c1)[C@@H](NC[C@@H](O)[C@H](Cc1cc(F)cc(F)c1)NC(=O)C(Cl)Cl)CC1(CCC1)O2 readout_name=IC50 test_result=0.43
molecule=CC(=O)N[C@@H](Cc1ccc(F)cc1)[C@H](O)CN[C@H]1CC2(CCC2)Oc2ncc(NC(=O)C(C)C)cc21 readout_name=IC50 test_result=7470
molecule=CC(=O)N[C@@H](Cc1ccc(F)cc1)[C@H](O)CN[C@@H]1C[C@]2(CC[C@H]2O)Oc2ncc(CC(C)(C)C)cc21 readout_name=IC50 test_result=6880
molecule=CC(=O)N[C@@H](Cc1ccc2c(c1)OCO2)[C@H](O)CN[C@H]1CC2(CCC2)Oc2c1cc(CC(C)(C)C)nc2Cl readout_name=IC50 test_result=28.6
molecule=CNc1nc(CC(C)(C)C)cc2c1OC1(CCC1)C[C@@H]2NC[C@@H](O)[C@H](Cc1ccc(F)cc1)NC(=O)COC readout_name=IC50 test_result=49.5
molecule=CO[C@@H](C)C(=O)N[C@@H](Cc1ccc(F)cc1)[C@H](O)CN[C@H]1CC2(CCC2)Oc2c(F)cc(CC(C)(C)C)cc21 readout_name=IC50 test_result=17.2
molecule=CC(=O)N[C@@H](Cc1ccc(F)cc1)[C@H](O)CN[C@H]1CC2(CCC2)Oc2ncc(OC(C)(F)F)cc21 readout_name=IC50 test_result=421
molecule=COCC(=O)N[C@@H](Cc1cccc(F)c1)[C@H](O)CN[C@H]1CC2(CCC2)Oc2cnc(CC(C)(C)C)cc21 readout_name=IC50 test_result=7.54
molecule=CC(=O)N[C@@H](Cc1ccc(F)cc1)[C@H](O)CN[C@H]1CC2(CCC2)Oc2c(F)cc(CC(C)(C)C)cc21 readout_name=IC50 test_result=7.2
